Test system: Escherichia coli
Experimental details: Antibacterial activity against Escherichia coli TG1 pTZ19U-3 plasmid encoded for APH(3')-1 after 12 to 18 hrs
Assay type: functional
Measured MIC, listed per entry.

Worked examples, 5 molecules total:
{"columns": ["Molecule", "MIC"],
 "data": [
  ["CCCCCCC(=O)NC[C@H]1O[C@@H](O[C@@H]2[C@@H](O)[C@H](N)C[C@H](N)[C@H]2O[C@H]2O[C@H](CN)[C@@H](O)[C@H](O)[C@H]2N)[C@H](O)[C@@H]1O[C@H]1O[C@@H](CN)[C@@H](O)[C@H](O)[C@H]1N", "≥ 2000 µg/mL"],
  ["NC[C@@H]1O[C@H](O[C@H]2[C@@H](O)[C@H](O[C@@H]3[C@@H](O)[C@H](N)C[C@H](N)[C@H]3O[C@H]3O[C@H](CN)[C@@H](O)[C@H](O)[C@H]3N)O[C@@H]2Cn2cc(CNC(=O)c3cc(-c4ccccc4)nc4ccccc34)nn2)[C@H](N)[C@@H](O)[C@@H]1O", "500 µg/mL"],
  ["NC[C@@H]1O[C@H](O[C@H]2[C@@H](O)[C@H](O[C@@H]3[C@@H](O)[C@H](N)C[C@H](N)[C@H]3O[C@H]3O[C@H](CN)[C@@H](O)[C@H](O)[C@H]3N)O[C@@H]2Cn2cc(CNC(=O)[C@@H]3CCCN3)nn2)[C@H](N)[C@@H](O)[C@@H]1O", "≥ 2000 µg/mL"],
  ["NC[C@@H]1O[C@H](O[C@H]2[C@@H](O)[C@H](O[C@@H]3[C@@H](O)[C@H](N)C[C@H](N)[C@H]3O[C@H]3O[C@H](CN)[C@@H](O)[C@H](O)[C@H]3N)O[C@@H]2CNC(=O)[C@H]2CCCN2)[C@H](N)[C@@H](O)[C@@H]1O", "≥ 2000 µg/mL"],
  ["NC[C@@H]1O[C@H](O[C@H]2[C@@H](O)[C@H](O[C@@H]3[C@@H](O)[C@H](N)C[C@H](N)[C@H]3O[C@H]3O[C@H](CN)[C@@H](O)[C@H](O)[C@H]3N)O[C@@H]2Cn2cc(C3CCCCN3)nn2)[C@H](N)[C@@H](O)[C@@H]1O (stereo partly drawn)", "≥ 2000 µg/mL"]
]}

Problem: Quick one: MIC of `CNCc1cn(C[C@H]2O[C@@H](O[C@@H]3[C@@H](O)[C@H](N)C[C@H](N)[C@H]3O[C@H]3O[C@H](CN)[C@@H](O)[C@H](O)[C@H]3N)[C@H](O)[C@@H]2O[C@H]2O[C@@H](CN)[C@@H](O)[C@H](O)[C@H]2N)nn1` ?
Result: ≥ 2000 µg/mL

Problem: Now give it for `NCC[C@H](O)C(=O)NC[C@H]1O[C@@H](O[C@@H]2[C@@H](O)[C@H](N)C[C@H](N)[C@H]2O[C@H]2O[C@H](CN)[C@@H](O)[C@H](O)[C@H]2N)[C@H](O)[C@@H]1O[C@H]1O[C@@H](CN)[C@@H](O)[C@H](O)[C@H]1N` too.
Result: ≥ 2000 µg/mL

Problem: Further, for `CCCCCCc1cn(C[C@H]2O[C@@H](O[C@@H]3[C@@H](O)[C@H](N)C[C@H](N)[C@H]3O[C@H]3O[C@H](CN)[C@@H](O)[C@H](O)[C@H]3N)[C@H](O)[C@@H]2O[C@H]2O[C@@H](CN)[C@@H](O)[C@H](O)[C@H]2N)nn1` ?
Result: 500 µg/mL

Problem: What do we get for `NC[C@@H]1O[C@H](O[C@H]2[C@@H](O)[C@H](O[C@@H]3[C@@H](O)[C@H](N)C[C@H](N)[C@H]3O[C@H]3O[C@H](CN)[C@@H](O)[C@H](O)[C@H]3N)O[C@@H]2CNC(=O)[C@H](N)CO)[C@H](N)[C@@H](O)[C@@H]1O` ?
Result: ≥ 2000 µg/mL

Problem: Proceed to `NC[C@@H]1O[C@H](O[C@H]2[C@@H](O)[C@H](O[C@@H]3[C@@H](O)[C@H](N)C[C@H](N)[C@H]3O[C@H]3O[C@H](CN)[C@@H](O)[C@H](O)[C@H]3N)O[C@@H]2CNC(=O)c2cc(-c3ccccc3)nc3ccccc23)[C@H](N)[C@@H](O)[C@@H]1O`
Result: ≥ 2000 µg/mL

Problem: Moving on to `CCCCCCCCCCCCCCCC(=O)NC[C@H]1O[C@@H](O[C@@H]2[C@@H](O)[C@H](N)C[C@H](N)[C@H]2O[C@H]2O[C@H](CN)[C@@H](O)[C@H](O)[C@H]2N)[C@H](O)[C@@H]1O[C@H]1O[C@@H](CN)[C@@H](O)[C@H](O)[C@H]1N`
Result: 8 µg/mL

Problem: Then `NCCCC[C@H](N)C(=O)NC[C@H]1O[C@@H](O[C@@H]2[C@@H](O)[C@H](N)C[C@H](N)[C@H]2O[C@H]2O[C@H](CN)[C@@H](O)[C@H](O)[C@H]2N)[C@H](O)[C@@H]1O[C@H]1O[C@@H](CN)[C@@H](O)[C@H](O)[C@H]1N` ?
Result: 125 µg/mL

Problem: Similarly, `NC[C@@H]1O[C@H](O[C@H]2[C@@H](O)[C@H](O[C@@H]3[C@@H](O)[C@H](N)C[C@H](N)[C@H]3O[C@H]3O[C@H](CN)[C@@H](O)[C@H](O)[C@H]3N)O[C@@H]2CNC(=O)CCC(=O)O)[C@H](N)[C@@H](O)[C@@H]1O` ?
Result: ≥ 2000 µg/mL

---

Test system: Enterococcus
Experimental details: Activity of Enterococcus APH(3')-3a
Measured endpoint: Km (µM)
Quick reminder: number only, in µM, skip the unit.

{"columns": ["Structure smiles", "Target or test system", "Km, µM"],
 "data": [
  ["NCC(=O)NC[C@H]1O[C@@H](O[C@@H]2[C@@H](O)[C@H](N)C[C@H](N)[C@H]2O[C@H]2O[C@H](CN)[C@@H](O)[C@H](O)[C@H]2N)[C@H](O)[C@@H]1O[C@H]1O[C@@H](CN)[C@@H](O)[C@H](O)[C@H]1N", "Enterococcus", 75],
  ["NC[C@@H]1O[C@H](O[C@H]2[C@@H](O)[C@H](O[C@@H]3[C@@H](O)[C@H](N)C[C@H](N)[C@H]3O[C@H]3O[C@H](CN)[C@@H](O)[C@H](O)[C@H]3N)O[C@@H]2Cn2cc(CNC(=O)c3cc(-c4ccccc4)nc4ccccc34)nn2)[C@H](N)[C@@H](O)[C@@H]1O", "Enterococcus", 410],
  ["CCCCCCCCCCCCCCCCCC(=O)NC[C@H]1O[C@@H](O[C@@H]2[C@@H](O)[C@H](N)C[C@H](N)[C@H]2O[C@H]2O[C@H](CN)[C@@H](O)[C@H](O)[C@H]2N)[C@H](O)[C@@H]1O[C@H]1O[C@@H](CN)[C@@H](O)[C@H](O)[C@H]1N", "Enterococcus", 60],
  ["CNCc1cn(C[C@H]2O[C@@H](O[C@@H]3[C@@H](O)[C@H](N)C[C@H](N)[C@H]3O[C@H]3O[C@H](CN)[C@@H](O)[C@H](O)[C@H]3N)[C@H](O)[C@@H]2O[C@H]2O[C@@H](CN)[C@@H](O)[C@H](O)[C@H]2N)nn1", "Enterococcus", 100],
  ["NC[C@@H]1O[C@H](O[C@H]2[C@@H](O)[C@H](O[C@@H]3[C@@H](O)[C@H](N)C[C@H](N)[C@H]3O[C@H]3O[C@H](CN)[C@@H](O)[C@H](O)[C@H]3N)O[C@@H]2CNC(=O)[C@@H](N)CO)[C@H](N)[C@@H](O)[C@@H]1O", "Enterococcus", 42],
  ["NC[C@@H]1O[C@H](O[C@H]2[C@@H](O)[C@H](O[C@@H]3[C@@H](O)[C@H](N)C[C@H](N)[C@H]3O[C@H]3O[C@H](CN)[C@@H](O)[C@H](O)[C@H]3N)O[C@@H]2CNC(=O)[C@H]2CCCN2)[C@H](N)[C@@H](O)[C@@H]1O", "Enterococcus", 70],
  ["NC[C@@H]1O[C@H](O[C@H]2[C@@H](O)[C@H](O[C@@H]3[C@@H](O)[C@H](N)C[C@H](N)[C@H]3O[C@H]3O[C@H](CN)[C@@H](O)[C@H](O)[C@H]3N)O[C@@H]2CNC(=O)[C@@H](N)Cc2c[nH]c3ccccc23)[C@H](N)[C@@H](O)[C@@H]1O", "Enterococcus", 322],
  ["CCCCCCc1cn(C[C@H]2O[C@@H](O[C@@H]3[C@@H](O)[C@H](N)C[C@H](N)[C@H]3O[C@H]3O[C@H](CN)[C@@H](O)[C@H](O)[C@H]3N)[C@H](O)[C@@H]2O[C@H]2O[C@@H](CN)[C@@H](O)[C@H](O)[C@H]2N)nn1", "Enterococcus", 127]
]}

Problem: Notebook entry, Enterococcus assay: Km of `C[C@@H](N)C(=O)NC[C@H]1O[C@@H](O[C@@H]2[C@@H](O)[C@H](N)C[C@H](N)[C@H]2O[C@H]2O[C@H](CN)[C@@H](O)[C@H](O)[C@H]2N)[C@H](O)[C@@H]1O[C@H]1O[C@@H](CN)[C@@H](O)[C@H](O)[C@H]1N` = ?
Result: 63

Problem: Entry to check: `NC[C@@H]1O[C@@H](O[C@H]2[C@H](O)[C@@H](O[C@H]3O[C@H](CO)[C@@H](O)[C@H](N)[C@H]3O)[C@H](N)C[C@@H]2N)[C@@H](O)[C@H](O)[C@H]1O`
Result: 8.2

Problem: Note, next up: `NC[C@@H]1O[C@H](O[C@H]2[C@@H](O)[C@H](O[C@@H]3[C@@H](O)[C@H](N)C[C@H](N)[C@H]3O[C@H]3O[C@H](CN)[C@@H](O)[C@H](O)[C@H]3N)O[C@@H]2Cn2cc(CNC(=O)[C@@H]3CCCN3)nn2)[C@H](N)[C@@H](O)[C@@H]1O`
Result: 175

Problem: Can you handle `NC[C@@H]1O[C@H](O[C@H]2[C@@H](O)[C@H](O[C@@H]3[C@@H](O)[C@H](N)C[C@H](N)[C@H]3O[C@H]3O[C@H](CN)[C@@H](O)[C@H](O)[C@H]3N)O[C@@H]2CNC(=O)CCC(=O)O)[C@H](N)[C@@H](O)[C@@H]1O` next?
Result: 53

Problem: Same lookup for `NC[C@@H]1O[C@H](O[C@H]2[C@@H](O)[C@H](O[C@@H]3[C@@H](O)[C@H](N)C[C@H](N)[C@H]3O[C@H]3O[C@H](CN)[C@@H](O)[C@H](O)[C@H]3N)O[C@@H]2CNC(=O)[C@H](N)CO)[C@H](N)[C@@H](O)[C@@H]1O` , please.
Result: 57

Problem: // query: `CCCCCCCCCCCCCCCC(=O)NC[C@H]1O[C@@H](O[C@@H]2[C@@H](O)[C@H](N)C[C@H](N)[C@H]2O[C@H]2O[C@H](CN)[C@@H](O)[C@H](O)[C@H]2N)[C@H](O)[C@@H]1O[C@H]1O[C@@H](CN)[C@@H](O)[C@H](O)[C@H]1N`
Result: 58

Problem: Here is the next molecule: `C[C@H](N)C(=O)NC[C@H]1O[C@@H](O[C@@H]2[C@@H](O)[C@H](N)C[C@H](N)[C@H]2O[C@H]2O[C@H](CN)[C@@H](O)[C@H](O)[C@H]2N)[C@H](O)[C@@H]1O[C@H]1O[C@@H](CN)[C@@H](O)[C@H](O)[C@H]1N`
Result: 60

Origin of the recorded values: ChEMBL document CHEMBL1140232
